TESTED TARGET: rat CB2 receptor (rCB2) (Rattus norvegicus, UniProt Q9QZN9)
Sequence (Q9QZN9 whole entry): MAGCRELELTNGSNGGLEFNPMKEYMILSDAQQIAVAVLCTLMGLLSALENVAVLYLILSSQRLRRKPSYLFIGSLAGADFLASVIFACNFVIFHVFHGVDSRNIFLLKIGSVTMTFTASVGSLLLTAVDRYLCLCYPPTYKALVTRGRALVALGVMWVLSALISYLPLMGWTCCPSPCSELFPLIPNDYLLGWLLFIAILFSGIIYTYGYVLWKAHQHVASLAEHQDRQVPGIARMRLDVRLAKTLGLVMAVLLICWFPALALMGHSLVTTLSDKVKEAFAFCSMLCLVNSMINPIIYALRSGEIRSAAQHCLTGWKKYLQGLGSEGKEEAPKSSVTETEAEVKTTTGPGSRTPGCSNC
PROTOCOL NOTES: cell-based
Type: cell-based
CONDITION SET: intracellular cAMP, CHO-K1 cells, NKH-477 prestimulated; + agonist, − inverse agonist
READOUT: rCB2 EC50 range

The cases that follow already have their rCB2 EC50 range on record.
                                   compound          readout  reported_value
0  CCc1noc(-c2ccc3c(c2)N(S(=O)(=O)c2ccc(C(F)(F)F)cc2)CCS3)n1 [Example 89]  rCB2 EC50 range              +A
1  O=S(=O)(c1ccc(F)cc1)N1CCSc2ccc(-c3ncc(-c4ccccc4)[nH]3)cc21 [Example 108]  rCB2 EC50 range              +B
2  O=C(NC12CC3CC(CC(C3)C1)C2)c1ccc2c(c1)N(S(=O)(=O)c1ccc(F)cc1)CCS2 [Example 51]  rCB2 EC50 range              −C
3  O=C(c1ccc2c(c1)N(S(=O)(=O)c1ccc(C(F)(F)F)cc1)CCS2)N1CCCCC1 [Example 75]  rCB2 EC50 range              −C
4  CC(C)CNC(=O)c1ccc2c(c1)N(C(=O)c1ccccc1)CCS2 [Example 2]  rCB2 EC50 range              −C
5  CC(C)(C)NC(=O)c1ccc2c(c1)N(S(C)(=O)=O)CCS2 [Example 53]  rCB2 EC50 range              +D
6  CCC(=O)N1CCSc2ccc(C(=O)NC34CC5CC(CC(C5)C3)C4)cc21 [Example 39]  rCB2 EC50 range              −E
7  COCCCNC(=O)c1ccc2c(c1)N(C(=O)c1ccc(Cl)cc1)CCS2 [Example 19]  rCB2 EC50 range              −E

Batch lookup, rCB2 EC50 range per entry.
1. COCCCNC(=O)c1ccc2c(c1)N(S(=O)(=O)c1ccc(F)cc1)CCS2 [Example 49]
2. O=C(NNC(=O)c1ccc2c(c1)N(S(=O)(=O)c1ccc(C(F)(F)F)cc1)CCS2)c1ccccc1 [Example 79]
3. CCN(CC)C(=O)c1ccc2c(c1)N(S(=O)(=O)c1ccccc1)CCS2 [Example 65]
4. CN(C)C(=O)c1ccc2c(c1)N(S(=O)(=O)c1ccc(F)cc1)CCS2 [Example 69]
5. O=C(NC1CCCC1)c1ccc2c(c1)N(C(=O)c1ccc(F)cc1)CCS2 [Example 12]
6. O=C(NC1CCCC1)c1ccc2c(c1)N(S(=O)(=O)c1ccccc1)CCO2 [Example 61]

**Result**
["+A", "+D", "+C", "+D", "−D", "+C"]

// each compound listed below needs its rCB2 EC50 range
1. O=C(c1ccc2c(c1)N(S(=O)(=O)c1ccccc1)CCS2)N1CCOCC1 [Example 68]
2. CC(C)C(=O)N1CCSc2ccc(C(=O)NC34CC5CC(CC(C5)C3)C4)cc21 [Example 40]
3. CC(C)CNC(=O)c1ccc2c(c1)N(S(=O)(=O)c1ccccc1)CCS2 [Example 41]
4. CS(=O)(=O)N1CCSc2ccc(C(=O)NC3CCCC3)cc21 [Example 55]
5. O=C(NC1CCCC1)c1ccc2c(c1)N(C(=O)c1ccccc1)CCS2 [Example 14]

**Result**
["+D", "−D", "+A", "+D", "−D"]

Respectfully, I request rCB2 EC50 range for each entry included below.
1. O=C(NC1CCCC1)c1ccc2c(c1)N(S(=O)(=O)c1ccc(F)cc1)CCS2 [Example 45]
2. CC(C)NC(=O)c1ccc2c(c1)N(C(=O)c1ccc(F)cc1)CCS2 [Example 27]
3. CC1(C)CCN(S(=O)(=O)c2ccccc2)c2cc(C(=O)N3CCOCC3)ccc2S1 [Example 94]

**Result**
1: +A; 2: +D; 3: +D

The values you see were collected from patent US7960376B2.
